# System: human BCL6 BTB domain (Trx-6xHis-BCL6) (Homo sapiens (Human), UniProt P41182)
# Assay Text: HTRF in vitro assay (BCL6 BTB domain / BCOR-AF633 peptide)
# Format: binding
# Setup Conditions: further generated data (Table 1b); 1 nM Trx-6xHis-BCL6, 0.5 nM anti-6xHis-Terbium cryptate
Documented HTRF pIC50 across a set of molecules
Provide a numeric answer; units are not to be included.

Known HTRF pIC50 results, listed for orientation:
>  <Molecule>
CCNc1cc(=O)n(C)c2ccc(Nc3cc(C(=O)NC)nc(Cl)c3C#N)cc12 [Example 5]

>  <System>
human BCL6 BTB domain (Trx-6xHis-BCL6) (Homo sapiens (Human), UniProt P41182)

>  <HTRF pIC50>
6.43

$$$$
>  <Molecule>
CC(Nc1cc(=O)n(C)c2ccc(Nc3nc(N4CCC(CC(=O)N(C)C)CC4)ncc3Cl)cc12)c1ncccn1 (stereo not drawn) [Example 17e]

>  <System>
human BCL6 BTB domain (Trx-6xHis-BCL6) (Homo sapiens (Human), UniProt P41182)

>  <HTRF pIC50>
6.34

$$$$
>  <Molecule>
CC(Nc1cc(=O)n(CC2CCC2)c2ccc(Nc3ccnc(Cl)c3C#N)cc12)c1ncccn1 (stereo not drawn) [Example 11i]

>  <System>
human BCL6 BTB domain (Trx-6xHis-BCL6) (Homo sapiens (Human), UniProt P41182)

>  <HTRF pIC50>
6.64

$$$$
>  <Molecule>
Cn1c(=O)cc(NC(C)(C)c2ncc(C3CC3)cn2)c2cc(Nc3ccnc(Cl)c3Cl)ccc21 [Example 6j]

>  <System>
human BCL6 BTB domain (Trx-6xHis-BCL6) (Homo sapiens (Human), UniProt P41182)

>  <HTRF pIC50>
6.84

$$$$
>  <Molecule>
CC(Nc1cc(=O)n(C)c2ccc(Nc3nc(N4CC5(CCOCC5)C4)ncc3Cl)cc12)c1ncccn1 (stereo not drawn) [Example 17h]

>  <System>
human BCL6 BTB domain (Trx-6xHis-BCL6) (Homo sapiens (Human), UniProt P41182)

>  <HTRF pIC50>
6.20

$$$$

Shifting focus to the molecule that follows.
# input Let me know recorded HTRF pIC50 for CC(Nc1cc(=O)n(C)c2ccc(Nc3cc(C(=O)O)nc(Cl)c3C#N)cc12)C1CC1 (stereo not drawn) [Example 2a] , thanks.
# output 6.85

* * *

# System: human BCL6 BTB domain (Trx-6xHis-BCL6) (Homo sapiens (Human), UniProt P41182)
# Assay Text: HTRF in vitro assay (BCL6 BTB domain / BCOR-AF633 peptide)
# Assay type: binding
# Setup Conditions: further generated data (Table 1b); 1 nM Trx-6xHis-BCL6, 0.5 nM anti-6xHis-Terbium cryptate
Measurement Label: HTRF pIC50
Provide a numeric answer; units are not to be included.

Known HTRF pIC50 results, listed for orientation:
>  <Compound>
CN(C)C(=O)c1cc(Nc2ccc3c(c2)c(NC(C)(C)c2ncccn2)cc(=O)n3C)c(C#N)c(Cl)n1 [Example 19a]

>  <Readout Value>
7.55

$$$$
>  <Compound>
Cn1c(=O)cc(NC(C)(C)c2ncc(C3CC3)cn2)c2cc(Nc3cc(C(=O)N4CCC4)nc(Cl)c3C#N)ccc21 [Example 8b]

>  <Readout Value>
7.86

$$$$
>  <Compound>
CC(Nc1cc(=O)n(C)c2ccc(Nc3ccnc(Cl)c3C#N)cc12)c1ccncn1 (stereo not shown) [Example 1q]

>  <Readout Value>
6.29

$$$$
>  <Compound>
Cc1cc(Nc2ccc3c(c2)c(NC(C)c2ncccn2)cc(=O)n3C)c(C#N)c(Cl)n1 (stereo not shown) [Example 1w]

>  <Readout Value>
6.90

$$$$
>  <Compound>
Cn1c(=O)cc(NCC2CC2)c2cc(Nc3cc(C(=O)O)nc(Cl)c3C#N)ccc21 [Example 9l]

>  <Readout Value>
6.56

$$$$
>  <Compound>
CCNc1cc(=O)n(C)c2ccc(Nc3cc(C(=O)O)nc(Cl)c3C#N)cc12 [Example 4]

>  <Readout Value>
6.07

$$$$
>  <Compound>
COCCOCC(C)Nc1cc(=O)n(C)c2ccc(Nc3ccnc(Cl)c3C#N)cc12 (stereo not shown) [Example 11g]

>  <Readout Value>
6.05

$$$$
>  <Compound>
C[C@@H](CO)Nc1cc(=O)n(C)c2ccc(Nc3ccnc(Cl)c3C#N)cc12 [Example 3g]

>  <Readout Value>
6.39

$$$$

# input Let me know recorded HTRF pIC50 for CC(Nc1cc(=O)n(C)c2ccc(Nc3ccnc(Cl)c3C#N)cc12)c1ncc(-c2cnn(C)c2)cn1 (stereo not shown) [Example 10c] , thanks.
# output 7.45

# input Let me know recorded HTRF pIC50 for C[C@@H](Nc1cc(=O)n(C)c2ccc(Nc3ccnc(Cl)c3C#N)cc12)C(=O)NC1CCCC1 [Example 3d] , thanks.
# output 6.61

# input Let me know recorded HTRF pIC50 for CC(Nc1cc(=O)n(C)c2ccc(Nc3ccnc(Cl)c3C#N)cc12)c1nc[nH]n1 (stereo not shown) [Example 1e] , thanks.
# output 6.08

# input Let me know recorded HTRF pIC50 for CC(Nc1cc(=O)n(C)c2ccc(Nc3ccnc(Cl)c3C#N)cc12)c1ncc(N2C[C@@H](C)O[C@@H](C)C2)cn1 (stereo partly shown) [Example 10b] , thanks.
# output 7.39

# input Let me know recorded HTRF pIC50 for COc1cc(Nc2ccnc(Cl)c2C#N)cc2c(NC(C)(C)c3ncccn3)cc(=O)n(C)c12 [Example 10r] , thanks.
# output 6.32

# input Let me know recorded HTRF pIC50 for CC(Nc1cc(=O)n(C)c2ccc(Nc3cc(N4CCC(F)(F)CC4)ncc3Cl)cc12)c1ncccn1 (stereo not shown) [Example 15h] , thanks.
# output 6.21

# input Let me know recorded HTRF pIC50 for COCCC1CCCN1C(=O)c1cc(Nc2ccc3c(c2)c(N[C@H](C)C2CC2)cc(=O)n3C)c(Cl)cn1 (stereo partly shown) [Example 15b] , thanks.
# output 6.46

# input Let me know recorded HTRF pIC50 for C[C@@H](Nc1cc(=O)n(C)c2ccc(Nc3cc(C(=O)O)nc(Cl)c3C#N)cc12)C1CC1 [Example 9b] , thanks.
# output 7.13

* * *

# System: BCL6-NCOR2(SMRT) corepressor protein-protein interaction (Homo sapiens (Human), UniProt P41182)
# Assay Text: NanoBRET cell assay in transfected HEK293T cells
# Format: cell-based
# Setup Conditions: further generated data (Table 2b); HEK293T cells, 6 hr; read-out: NanoBRET cell pIC50 (converted)
I'd appreciate it if you marked entries TRUE when IC50 is lower than 4 µM and FALSE when it is not.

>  <Molecule>
CNC(=O)c1cc(Nc2ccc3c(c2)c(NC2CCC2OC)cc(=O)n3C)c(C#N)c(Cl)n1 (racemic) [Example 23a]

>  <Category Label>
FALSE

$$$$
>  <Molecule>
Cn1c(=O)cc(NC(C)(C)c2ncccn2)c2cc(Nc3ccnc(Cl)c3Cl)ccc21 [Example 6b]

>  <Category Label>
TRUE

$$$$
>  <Molecule>
CN(C)C(=O)c1cc(Nc2ccc3c(c2)c(NC(C)(C)c2ncccn2)cc(=O)n3C)c(C#N)c(Cl)n1 [Example 19a]

>  <Category Label>
TRUE

$$$$
>  <Molecule>
CC(Nc1cc(=O)n(C)c2ccc(Nc3ccnc(Cl)c3C#N)cc12)c1ncc(C2CCC2)cn1 (centres unmarked) [Example 24f]

>  <Category Label>
TRUE

$$$$
>  <Molecule>
Cn1c(=O)cc(NC(c2ncccn2)C2CC2)c2cc(Nc3ccnc(Cl)c3C#N)ccc21 (centres unmarked) [Example 10p]

>  <Category Label>
TRUE

$$$$

# input Dear colleague, could you confirm whether IC50 of CC(Nc1cc(=O)n(CCO)c2ccc(Nc3ccnc(Cl)c3C#N)cc12)c1ncccn1 (centres unmarked) [Example 11j] falls below 4 µM? Thanks.
# output FALSE

# input Dear colleague, could you confirm whether IC50 of Cn1c(=O)cc(NC2(c3ncccn3)CC2)c2cc(Nc3ccnc(Cl)c3C#N)ccc21 [Example 10u] falls below 4 µM? Thanks.
# output FALSE

# input Dear colleague, could you confirm whether IC50 of CC(Nc1cc(=O)n(C)c2ccc(Nc3cc(N4C[C@@H](C)O[C@@H](C)C4)ncc3Cl)cc12)c1ncccn1 (some centres unmarked) [Example 15e] falls below 4 µM? Thanks.
# output FALSE

* * *

# System: BCL6-NCOR2(SMRT) corepressor protein-protein interaction (Homo sapiens (Human))
# Assay Text: NanoBRET cell assay in transfected HEK293T cells
# Format: cell-based
# Setup Conditions: further generated data (Table 2b); HEK293T cells, 6 hr; read-out: NanoBRET cell pIC50 (converted)
Measurement Label: IC50 (µM)
Number only, in µM; omit the unit.

Known IC50 results, listed for orientation:
>  <Molecule>
CC(Nc1cc(=O)n(C)c2ccc(Nc3ccnc(Cl)c3C#N)cc12)c1cc2ccccc2cn1 (stereo not shown) [Example 24e]

>  <IC50 / µM>
3.47

$$$$
>  <Molecule>
CCC(C)(Nc1cc(=O)n(C)c2ccc(Nc3ccnc(Cl)c3C#N)cc12)c1ncccn1 (stereo not shown) [Example 24c]

>  <IC50 / µM>
5.13

$$$$
>  <Molecule>
CNC(=O)c1cc(Nc2ccc3c(c2)c(NC(C)(C)c2ncccn2)cc(=O)n3C)c(C#N)c(Cl)n1 [Example 1u]

>  <IC50 / µM>
0.525

$$$$
>  <Molecule>
CN(C)C(=O)C1CCN(c2ncc(Cl)c(Nc3ccc4c(c3)c(NC3(C#N)CC3)cc(=O)n4C)n2)CC1 [Example 16b]

>  <IC50 / µM>
5.01

$$$$
>  <Molecule>
Cc1nc(-n2ccc(C(F)(F)F)n2)nc(Nc2ccc3c(c2)c(NC(C)(C)c2ncccn2)cc(=O)n3C)c1Cl [Example 14a]

>  <IC50 / µM>
3.89

$$$$
>  <Molecule>
CC(Nc1cc(=O)n(C)c2ccc(Nc3ccnc(Cl)c3C#N)cc12)c1ncc(-c2cnn(C)c2)cn1 (stereo not shown) [Example 10c]

>  <IC50 / µM>
0.49

$$$$

# input Let me know recorded IC50 for Cn1c(=O)cc(NC(C)(C)c2ncccn2)c2cc(Nc3cc(C(=O)N4CC(C(F)(F)F)C4)nc(Cl)c3C#N)ccc21 [Example 8d] , thanks.
# output 0.24
